TESTED SYSTEM: Recombinant human Bcl-2 protein (Homo sapiens (Human))
Sequence (P10415 whole entry): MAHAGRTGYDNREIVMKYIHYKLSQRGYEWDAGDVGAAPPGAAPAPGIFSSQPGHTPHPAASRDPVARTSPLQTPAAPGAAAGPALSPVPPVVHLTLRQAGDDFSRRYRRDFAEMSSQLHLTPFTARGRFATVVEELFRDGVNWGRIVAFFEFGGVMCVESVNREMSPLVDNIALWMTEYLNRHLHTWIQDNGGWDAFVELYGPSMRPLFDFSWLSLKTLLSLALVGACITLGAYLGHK
METHOD: Bcl-2 TR-FRET Assay
Format: binding
EXPERIMENTAL CONTEXT: wild type Bcl-2; unit inferred; read-out: Bcl-2 WT
MEASURED QUANTITY: IC50 (nM)
Numbers only, in nM.

Guide cases for IC50, answers given:
Using the record for COc1cc(CN2CCN(C3CC4(C3)CN(c3ccc(C(=O)NS(=O)(=O)c5ccc(NC[C@H]6CC[C@](C)(O)CC6)c([N+](=O)[O-])c5)c(Oc5cnc6[nH]ccc6c5)c3)C4)[C@H](c3ccccc3C(C)C)C2)cnc1OC , report its IC50.
0.03

Fill blank: measured IC50 of the compound CC(C)c1ccccc1C1CN(Cc2ccc(C#N)cc2)CCN1C1CC2(CCN(c3ccc(C(=O)NS(=O)(=O)c4ccc(NC[C@H]5CC[C@](C)(O)CC5)c([N+](=O)[O-])c4)c(Oc4cnc5[nH]ccc5c4)c3)CC2)C1 (some centres unmarked) is ____.
0.41

What IC50 value was documented for this compound, CC(C)c1ccccc1C1CN(Cc2ccoc2)CCN1C1CC2(CCN(c3ccc(C(=O)NS(=O)(=O)c4ccc(NC[C@H]5CC[C@](C)(O)CC5)c([N+](=O)[O-])c4)c(Oc4cnc5[nH]ccc5c4)c3)CC2)C1 (some centres unmarked) ?
0.053

What value of IC50 has been recorded for this entry: COc1cc(CN2CCN(C3CC4(C3)CN(c3ccc(C(=O)NS(=O)(=O)c5ccc(NC[C@H]6CC[C@](C)(O)CC6)c([N+](=O)[O-])c5)c(Oc5cnc6[nH]cc(F)c6c5)c3)C4)[C@H](c3ccccc3C(C)C)C2)ccc1C1COC1
0.16

Please report the recorded IC50 for CC(C)c1ccccc1C1CN(Cc2ccc(F)cc2)CCN1C1CC2(CCN(c3ccc(C(=O)NS(=O)(=O)c4ccc(NC[C@H]5CC[C@](C)(O)CC5)c([N+](=O)[O-])c4)c(Oc4cnc5[nH]ccc5c4)c3)CC2)C1 (some centres unmarked) .
0.23

Give its IC50 value. Item: COc1cc(CN2CCN(C3CC4(C3)CN(c3ccc(C(=O)NS(=O)(=O)c5ccc(NC[C@H]6CC[C@](C)(O)CC6)c([N+](=O)[O-])c5)c(Oc5cnc6[nH]cc(F)c6c5)c3)C4)[C@H](c3ccccc3C(C)C)C2)ccc1N1CC(OC)C1
0.19

Entry CC(C)c1ccccc1[C@@H]1CN(Cc2ccc3c(c2)OCCC3)CCN1C1CC2(CCN(c3ccc(C(=O)NS(=O)(=O)c4ccc(NC[C@H]5CC[C@](C)(O)CC5)c([N+](=O)[O-])c4)c(Oc4cnc5[nH]ccc5c4)c3)CC2)C1 has what IC50?
0.25

The record that follows has no IC50 shown yet.
Reported IC50 for COc1ccc(CN2CCN(C3CC4(CCN(c5ccc(C(=O)NS(=O)(=O)c6ccc(NC[C@H]7CC[C@](C)(O)CC7)c([N+](=O)[O-])c6)c(Oc6cnc7[nH]cc(F)c7c6)c5)CC4)C3)[C@H](c3ccccc3C(C)C)C2)cn1 : what is it?
0.074
